Protocol Notes: Human HepG2 cell viability dose-response assay
Assay type: toxicity, cell-based
Measurement Label: HILLSLOPE
When you answer, write just the number.

Quote HILLSLOPE reported for Cc1cnc(C(=O)N2CCCC(n3ccnc3C)C2)cn1 (stereo unspecified) please.
0

Supply measured HILLSLOPE of COCCn1c2c(ccc1=O)CC(NCc1cnn(C)c1)CC2 (stereo unspecified) in your reply.
0

Recall and state the measured HILLSLOPE for Cc1nc(CN2CCCC(N(C)Cc3cnn(C)c3)C2)no1 (stereo unspecified) .
0

Write down HILLSLOPE measured for item COc1ccc(C2CCCN2c2nnc(C)s2)c(OC)c1 (stereo unspecified)
0

# return recorded HILLSLOPE for entry COCc1cc(N(C)Cc2c(C)nn(C)c2C)n2nccc2n1
0

// fetch HILLSLOPE given entry COCCN1CCN(Cc2cccc(C(N)=O)c2)CC1C (stereo unspecified)
0

Read off the recorded HILLSLOPE for Cc1cc(NC(=O)CN2CCn3c(nnc3C(C)C)C2)no1
0

Return HILLSLOPE for the following compound: CC(O)CN1CCC(CNCc2c[nH]nc2C(C)(C)C)CC1 (stereo unspecified)
0

Give the measured HILLSLOPE for CCC(=O)Nc1ccc2c(c1)CN(C(=O)c1ccco1)CC2
0

State its HILLSLOPE for this compound: CCCn1ncc(-c2ccnc(NC3CC(C)(C)NC(C)(C)C3)n2)c1C
0

Return value of HILLSLOPE for input Cc1cc(C(=O)NCC(O)c2c(Cl)cccc2Cl)nn1C (stereo unspecified) , no commentary.
0
